System: DLD-1 colon
ASSAY DETAILS: NCI tumour cell line growth inhibition, 48 h
Some molecules, each annotated with its measured TGI.

The following molecules have reported results that may help.
[[record]]
molecule = "Cc1ccc(OC(=O)N2C/C(=C\\c3ccccc3)C(=O)/C(=C/c3ccccc3)C2)cc1"
assay_result = "28.1 µM"

[[record]]
molecule = "COc1cc2c(c(OC)c1OC)C(=O)NCCC2"
assay_result = "> 100 µM"

[[record]]
molecule = "CCN(c1ccccc1)[C@H]1C(=O)N(c2ccc([N+](=O)[O-])cc2)[C@H]1c1ccc(OC)cc1"
assay_result = "> 100 µM"


QUERY: Hello, I am looking for reported TGI with DLD-1 colon for C=C1C2=C(CCCC2)C(=O)OC12CCCCC2 . Could you help?
RESULT: > 100 µM

QUERY: Hello, I am looking for reported TGI with DLD-1 colon for CCCc1cc(OC(=O)c2c(O)cc(OC)cc2CCC)cc(O)c1C(=O)O . Could you help?
RESULT: > 100 µM

QUERY: Hello, I am looking for reported TGI with DLD-1 colon for COc1ccc(C2Cc3cc(OC)c(OC)c(OC)c3C2)cc1 (centres undefined) . Could you help?
RESULT: > 100 µM

QUERY: Hello, I am looking for reported TGI with DLD-1 colon for O=P(NCCCO)(OCc1ccccc1)N(CCCl)CCCl (centres undefined) . Could you help?
RESULT: > 31.6 µM

QUERY: Hello, I am looking for reported TGI with DLD-1 colon for C#C[C@]1(O)CC[C@H]2[C@@H]3CCc4cc(O)ccc4[C@H]3CC[C@@]21C . Could you help?
RESULT: 60.7 µM

QUERY: Hello, I am looking for reported TGI with DLD-1 colon for Cc1cc(Cl)ccc1NC(=O)C1C(=O)N(c2ccc(Cl)cc2C)C(=O)/C1=N\NC(N)=S (centres undefined) . Could you help?
RESULT: > 100 µM

QUERY: Hello, I am looking for reported TGI with DLD-1 colon for Cc1ccc2ccc(-c3ccccc3)c3c2c1C(=O)c1ccccc1C3=O . Could you help?
RESULT: > 100 µM

QUERY: Hello, I am looking for reported TGI with DLD-1 colon for COc1ccc(Br)c(C(=O)N2CCc3ccccc32)c1N . Could you help?
RESULT: > 100 µM

QUERY: Hello, I am looking for reported TGI with DLD-1 colon for Cc1cc(C)nc(NS(=O)(=O)c2ccc(Nc3c4ccccc4nc4c(C(=O)NCCN(C)C)cccc34)cc2)n1 . Could you help?
RESULT: 21.7 µM

QUERY: Hello, I am looking for reported TGI with DLD-1 colon for CCCNCCCCC(NC(C)=O)C(=O)NCc1ccccc1 (centres undefined) . Could you help?
RESULT: > 100 µM

QUERY: Hello, I am looking for reported TGI with DLD-1 colon for Cc1ccc(S(=O)C(C)C(Cl)c2ccccc2)cc1 (centres undefined) . Could you help?
RESULT: > 100 µM

====

Test system: NCI-H226 lung
ASSAY DETAILS: NCI tumour cell line growth inhibition, 48 h
OUTCOME MEASURE: TGI (µM)
Field format: number, assumed µM, no unit text.

[[record]]
given_smiles = "C[C@@H]1CC[C@@H]2[C@@H](C1)O[C@@H]([C@@H](C)OCc1ccccc1)SC2(C)C"
assay_result = 34.5


Shifting focus to the compound that follows.
QUERY: Hello, I am looking for reported TGI with NCI-H226 lung for C#C[C@]1(O)CC[C@H]2[C@@H]3CC=C4c5nc(N)sc5CC[C@]4(C)[C@H]3CC[C@@]21C . Could you help?
RESULT: 7.56

====

System: T-47D breast
ASSAY DETAILS: NCI tumour cell line growth inhibition, 48 h
OUTCOME MEASURE: TGI

The following compounds have reported results that may help.
[[record]]
compound = "N#[N+]c1ccc(Nc2ccccc2)cc1"
tested_target = "T-47D breast"
assay_result = "> 50 mg/L"

[[record]]
compound = "Clc1ccc(CN2CCCN(Cc3ccc(Cl)cc3)C2c2cc3ccccc3c3ccccc23)cc1"
tested_target = "T-47D breast"
assay_result = "> 100 µM"

[[record]]
compound = "CC(C)[C@H]1NC(=O)[C@H]2N=C(S[C@H]2C)[C@@H]2CCCN2C(=O)[C@H](Cc2ccccc2)NC(=O)[C@@H]2CSC(=N2)[C@@H](Cc2ccccc2)NC(=O)[C@@H]2CSC1=N2"
tested_target = "T-47D breast"
assay_result = "> 50 µM"

[[record]]
compound = "CC(=O)Nc1cccc(N2C(=O)/C(=C\\c3cccc(Oc4ccccc4)c3)SC2c2ccccc2)c1 (centres undefined)"
tested_target = "T-47D breast"
assay_result = "> 100 µM"

[[record]]
compound = "O=C1Cc2cn[nH]c2-c2ccccc2N1"
tested_target = "T-47D breast"
assay_result = "> 100 µM"


QUERY: I'd like to know its TGI. The compound in question is COc1ccc2nc3ccc(OC)cc3c(SCCCl)c2c1
RESULT: > 97.2 µM

QUERY: I'd like to know its TGI. The compound in question is O=c1[nH]cnc2n[nH]nc12
RESULT: > 100 µM

QUERY: I'd like to know its TGI. The compound in question is CCOC(=O)c1c[nH]c(C(=O)C=[N+]=[N-])c1C1CCN(CC)C1=S (centres undefined)
RESULT: > 100 µM

QUERY: I'd like to know its TGI. The compound in question is CC(C)OP(=O)(OC(C)C)C(C)(C)O
RESULT: > 100 µM

====

Tested on: MDA-MB-231 breast
ASSAY DETAILS: NCI tumour cell line growth inhibition, 48 h; in the data active means GI50 below about 0.43 µM; inactive means the rest
Hello, when you answer, please use one of the following outcomes: YES for active, NO for inactive

QUERY: # lookup: test call for COc1ccc(-c2cc(/C=C/C(=O)c3ccc(N)cc3)[nH]n2)cc1
RESULT: NO

QUERY: # lookup: test call for CCOC1Oc2ccc(C)cc2C(=O)/C1=C\Nc1ccc(S(N)(=O)=O)cc1 (centres undefined)
RESULT: NO

QUERY: # lookup: test call for CCn1c(-c2nonc2N)nc2cnc(Oc3cccc(NC(=O)c4ccc(N(C)C)cc4)c3)cc21
RESULT: NO

====

System: MALME-3M melanoma
ASSAY DETAILS: NCI tumour cell line growth inhibition, 48 h
Parameter threshold = 4 µM. Response is Satisfied when TGI meets or exceeds it, else Not satisfied.

Worked examples follow.
[[record]]
molecule = "CCCCC1(C(NC(=O)c2ccccc2Cl)c2ccncc2)C(=O)N(c2ccccc2)N(c2ccccc2)C1=O (stereo not given)"
group_label = "Satisfied"

[[record]]
molecule = "CCOC(=O)c1c[nH]c(C(=O)C=[N+]=[N-])c1C1CCN(CC)C1=S (stereo not given)"
group_label = "Satisfied"


QUERY: Is it the case that CCOP(=O)(O)C(Nc1ccc(N=Nc2ccccc2)cc1)c1cccc(C(Nc2ccc(N=Nc3ccccc3)cc2)P(=O)(O)OCC)c1 (stereo not given) has TGI reaching or exceeding 4 µM?
RESULT: Satisfied

QUERY: Is it the case that COc1ccc(/C=C\c2cc(OC)c(OC)c(OC)c2)cc1 has TGI reaching or exceeding 4 µM?
RESULT: Satisfied

QUERY: Is it the case that COc1ccc(-c2cc(/C=C/C(=O)c3ccc(N)cc3)[nH]n2)cc1 has TGI reaching or exceeding 4 µM?
RESULT: Satisfied

QUERY: Is it the case that CN1CC[C@H](c2c(O)cc(O)c3c(=O)cc(-c4ccccc4Cl)oc23)[C@H](O)C1 has TGI reaching or exceeding 4 µM?
RESULT: Not satisfied

QUERY: Is it the case that CN(CCc1ccccn1)c1ccc2c(c1)C(=O)c1ccccc1-2 has TGI reaching or exceeding 4 µM?
RESULT: Satisfied

QUERY: Is it the case that CCCc1cc(OC(=O)c2c(O)cc(OC)cc2CCC)cc(O)c1C(=O)O has TGI reaching or exceeding 4 µM?
RESULT: Satisfied

QUERY: Is it the case that COc1cc2cc(Oc3cccc(NC(=O)Nc4cc(C(F)(F)F)cc(C(F)(F)F)c4)c3)c(C)nc2cc1OC has TGI reaching or exceeding 4 µM?
RESULT: Not satisfied

QUERY: Is it the case that CCOC(=O)c1c(NC(=O)c2ccc(Cl)cc2)sc2c(CN(C)C)c(O)ccc12 has TGI reaching or exceeding 4 µM?
RESULT: Not satisfied

QUERY: Is it the case that C=C1C[C@@H]2O[C@H]3[C@H]4[C@@H](CC[C@@](C)(OC(=O)CCC)[C@H]42)[C@@H](C)C(=O)O[C@@]3(C)CC[C@H]1OO has TGI reaching or exceeding 4 µM?
RESULT: Satisfied

QUERY: Is it the case that O=[N+]1[C@H](c2ccccc2)[C@H](c2ccccc2)N1[O-] has TGI reaching or exceeding 4 µM?
RESULT: Satisfied

QUERY: Is it the case that Cn1c(=O)c2c(nc(N/N=C/c3ccccc3C(=O)O)n2C)n(C)c1=O has TGI reaching or exceeding 4 µM?
RESULT: Satisfied

QUERY: Is it the case that CC1OC(OC2C(O)C(O)C(O)C(O)C2O)C(N)CC1N=C(N)C(=O)O (stereo not given) has TGI reaching or exceeding 4 µM?
RESULT: Satisfied

QUERY: Is it the case that CCCCOC/N=C(/N)NC#N has TGI reaching or exceeding 4 µM?
RESULT: Satisfied

QUERY: Is it the case that COc1cccc(/C=N\NC(=O)C(C)SC(C)C(=O)N/N=C/c2cccc(OC)c2)c1 (stereo not given) has TGI reaching or exceeding 4 µM?
RESULT: Satisfied

QUERY: Is it the case that CCOC(=O)[C@@H]1CSC(CC)=C(C(=O)O)N1 has TGI reaching or exceeding 4 µM?
RESULT: Satisfied

QUERY: Is it the case that O=[N+]([O-])c1ccc(-c2nn3c(C45CC6CC(CC(C6)C4)C5)nnc3s2)c(Cl)c1 has TGI reaching or exceeding 4 µM?
RESULT: Satisfied

QUERY: Is it the case that COc1cc(OC)c2c(=O)c3cccc([N+](=O)[O-])c3n(C)c2c1 has TGI reaching or exceeding 4 µM?
RESULT: Satisfied
